Data provenance is PubChem BioAssay (NCI).

Test system: NCI/ADR-RES ovarian
protocol description: NCI tumour cell line growth inhibition, 48 h
# key: entry, value: TGI

Some compounds with known TGI results, for comparison:
CCCCCCCCCCCCCCCCCCNc1nc(=O)n(C2CC(O)C(COP(=O)(O)OCC(COP(=O)(O)OC3C(CO)OC(n4ccc(N)nc4=O)C3O)OCCCCCCCCCCCCCCCCCC)O2)cc1F (centres undefined) : > 100 µM
Nc1cc2ccccc2c(O)c1O : 6.21 µM
Cc1cc(-c2ccc(C3C(C#N)=C(N)Oc4c3c(=O)oc3ccccc43)cc2)cnc1F (centres undefined) : > 100 µM
COc1ccc2[nH]c(=O)c(/C=C/C(=O)c3ccccc3OC)cc2c1 : 20 µM
Cc1cc2nn(C3CCCO3)nc2cc1C (centres undefined) : > 100 µM

Report TGI, nothing else, for this compound: COc1ccc(CNC(=O)[C@H](Cc2ccc(O)cn2)NC(C)=O)cc1OC
> 100 µM

Using the record for COC(=O)CNC(=O)CCSc1nnc(COc2ccc(Cl)cc2)n1-c1ccccc1 , state its measured TGI.
> 100 µM

Please give measured TGI of the following entry: COc1cccc(-n2ncc3c(N/N=C/c4cccc(F)c4)ncnc32)c1
> 25 µM

---

Test system: DU-145 prostate
protocol description: NCI tumour cell line growth inhibition, 48 h
assay readout: TGI

These recorded examples may help you get a feel for the data.
CCOC(=O)c1c(SCCCN2CCCCC2)n(-c2ccccc2)c(=S)n(-c2ccccc2)c1=O : 29.9 µM
CC(=O)O[C@H](C[C@@H](C)[C@H]1C(=O)[C@H](O)[C@@]2(C)C3CC[C@H]4C(C)(C)[C@@H](OC5OCC(O)C(O)C5O)CC[C@@]45C[C@@]35CC[C@]12C)[C@@H]1OC1(C)C (stereo not given in full) : 37.7 µM
CC(=O)OCC12C(OC(C)=O)C(=O)C3C(OC(C)=O)C14OC3(C)COC(=O)c1cccnc1C(C)C(C)C(=O)OC(C(OC(C)=O)C2OC(C)=O)C4(C)O (stereo not given) : > 100 µM
S=c1[nH]nc(C23CC4CC(CC(C4)C2)C3)n1-c1ccc(Cl)cc1 : 95.9 µM
O=C1C=C2C(=CCOC2O)O1 (stereo not given) : 6.48 µM
Cc1cn(C2OC(CO)C(O)C2O)c(=O)[nH]c1=O (stereo not given) : > 1000 µM
O=[N+]([O-])c1ccc2c3c1[C@H]1O[C@H]1c1cccc(c1-3)[C@@H]1O[C@H]21 : 6.25 µM
c1ccc(-c2cn3nc(N4CCOCC4)sc3n2)cc1 : > 100 µM
COc1cc(/C=C\c2cc(/C=C\c3ccc(O)c(OC)c3)n(C(=O)COc3ccccc3)n2)ccc1O : 8.06 µM
Clc1ccc(Cc2nc3cc(Cl)ccc3o2)cc1 : > 100 µM

Determine from records and report TGI for O=C(O)C1(Cc2ccccc2)Cc2ccccc2C1
> 100 µM

Identify measured TGI associated with COc1ccc(-c2cn(-c3cccc(C(=O)/C=C/c4cc(OC)c(OC)c(OC)c4)c3)c(=O)[nH]2)cc1
8.76 µM

Find the measured TGI of CCN1CCN(Cc2ccc(NC(=O)c3nc4ccc5[nH]ncc5c4c4c3CCCC4)cc2C(F)(F)F)CC1 and report it.
2.98 µM

For the compound Cc1ccc(/C(=C/C=C(/C#N)C(N)=O)Sc2ncnn2C)cc1 , report TGI.
18.2 µM

Indicate its recorded TGI; the compound in question is C/C(=C\C(=N\N=C(N)N)c1ccc(Cl)cc1)c1ccc(Cl)cc1
1.5 µM

Fill in reported TGI for this entry: CCO/C(O)=C(/C(=N)N1CCOCC1)C(=O)Nc1cccc(Cl)c1
> 100 µM

Please supply the value of reported TGI for the item CC1(C)OC(CCC#N)CN1C(=O)OCc1ccccc1 (stereo not given)
> 100 µM

Using known records, supply TGI for CCCCCCCCCOc1c(OC)cc(C2CC(=O)Nc3c2c(C)nn3-c2nc3ccccc3[nH]2)cc1OC (stereo not given)
> 50 µM

For the compound COc1ccc2[nH]c(=O)c(/C=C/C(=O)c3ccccc3OC)cc2c1 , report TGI.
1.96 µM

// Input: CS(=O)(=O)OCCn1c2c(c3c(O)cccc31)C(=O)c1ccccc1-2 . Output its TGI only.
> 100 µM

---

System: HS 578T breast
protocol description: NCI tumour cell line growth inhibition, 48 h; in the data active = GI50 below about 0.43 µM; inactive = the rest
A correct response names exactly one class from active, inactive

Examples from the recorded data:
c1ccc(-c2nc([P+](c3ccccc3)(c3ccccc3)c3ccccc3)c(N3CCOCC3)o2)cc1 : inactive
O=C1C=C2C(=CCOC2O)O1 (stereo unspecified) : inactive
O=c1[nH]c2c3ccncc3cc(-c3cccc(Cl)c3)c2c2cnccc12 : inactive
CCN1CCN(Cc2ccc(NC(=O)c3nc4ccc5[nH]ncc5c4c4c3CCCC4)cc2C(F)(F)F)CC1 : inactive
COc1ccc2nc3cc(Cl)ccc3c(N)c2c1 : inactive
CNC[C@@H](NC(=O)c1ccc(-c2nc([C@H]3CC[C@H](O)[C@@H](F)C3)cnc2N)cc1F)c1cc(F)cc(Br)c1 : inactive
CN1C(=O)C23CC4(C56CC78SSC(CO)(C(=O)N7C5Nc5ccccc56)N(C)C8=O)c5ccccc5NC4N2C(=O)C1(CO)SS3 (stereo unspecified) : active
Oc1cc(Cn2cnc3c(Cl)nc(Cl)nc32)ccc1C12CC3CC(CC(C3)C1)C2 : inactive
CNCCC/C=C1\c2cc3c(cc2-c2c1c1cc(OC)c(OC)cc1c(=O)n2C)OCO3 : inactive
Cc1cnc(NC2CCOCC2)nc1-n1cnc(C(=O)N[C@H](CN)c2cc(F)cc(Cl)c2)c1 : inactive

Now for a further compound.
Recorded test call requested for C1CCC(C(CC2CCCCN2)C2CCCCC2)CC1 (stereo unspecified)
inactive

---

Test system: A549 NSCLC
protocol description: NCI tumour cell line growth inhibition, 48 h
Overview of reported TGI across a group of compounds:

CC1(C=O)C(=O)CCC2(C)C3CC(=O)OC3CCC12 (stereo not given) : > 100 µM
COc1ccc(NC(=O)CC(=O)NN2C(=O)/C(=C/c3ccc(N(CCC#N)CCC#N)cc3C)N=C2/C=C\c2ccccc2)cc1 : > 100 µM
O=c1[nH]c2ccccc2c(O)c1/C=N/C(=S)NCCc1ccccc1 : > 100 µM
C/C(=C\C(=N\N=C(N)N)c1ccc(Cl)cc1)c1ccc(Cl)cc1 : 1.56 µM

Here's the next entry for you.
Specify reported TGI for the compound shown: NC(N)=NS(=O)(=O)c1ccc(NC(=O)c2cccc3c(Nc4ccc(S(=O)(=O)N=C(N)N)cc4)c4ccccc4nc23)cc1
> 100 µM

---

Tested on: TK-10 renal
protocol description: NCI tumour cell line growth inhibition, 48 h
Entries and their TGI
Please respond with the number in µM and leave the unit unwritten.

Solved cases below.
N#C/C(=C/N1C(=O)/C(=C/c2ccc([N+](=O)[O-])cc2)SC1=S)c1nc2ccccc2s1 : 66.9
C/C(=N\NC(=S)N1CCN(c2ccccn2)CC1)c1cccc(C)n1 : 21.5

Determine from records and report TGI for N#CC(C#N)N=Nc1ccc(-c2nc3ccccc3s2)cc1
11.3

---

Listing of recorded TGI by entry.
Test system: SF-539 CNS
protocol description: NCI tumour cell line growth inhibition, 48 h

Example cases with answers are listed next.
Cc1cnc(NC2CCOCC2)nc1-n1cnc(C(=O)N[C@H](CN)c2cc(F)cc(Cl)c2)c1 : 17.4 µM
O=C(Cc1ccc(OCc2ccccc2)cc1)NCc1ccc2c(c1)OCO2 : > 100 µM
NC(=O)c1cc(Cl)ccc1NC(=O)COc1ccccc1 : 5.2 µM
O=C(C1CC1)N1CC[C@@H](Cc2n[nH]c(=O)n2-c2ccc(-c3ccc4occc4c3)cc2)C1 : > 100 µM
CC1C=CC(O)[C@]2(CO)CC3(CCC12)OCCO3 (stereo not given in full) : > 100 µM
C/C(=C1/N=C(c2cc([N+](=O)[O-])ccc2Cl)N(c2ccc(Br)cc2)C1=O)c1cc2ccccc2oc1=O : > 100 µM
NC(N)=NS(=O)(=O)c1ccc(NC(=O)c2cccc3c(Nc4ccc(S(=O)(=O)N=C(N)N)cc4)c4ccccc4nc23)cc1 : > 100 µM
Nc1nnnn1NC(=O)NCCCl : > 10 µM
CC1(C)OC(CCC#N)CN1C(=O)OCc1ccccc1 (stereo not given) : > 100 µM

Supply measured TGI of O=C(O)CCC[C@]1(O)O[C@@]2(CCCC2=O)[C@]2(O)CCC[C@@]21O in your reply.
> 100 µM

---

Test system: RPMI-8226 leukemia
protocol description: NCI tumour cell line growth inhibition, 48 h; in the data active means GI50 below about 0.43 µM; inactive means the rest
# output must be one of TRUE (active), FALSE (inactive)

Reference set (3 entries):
CNC[C@@H](NC(=O)c1ccc(-c2nc([C@H]3CC[C@H](O)[C@@H](F)C3)cnc2N)cc1F)c1cc(F)cc(Br)c1 : FALSE
COC(=O)[C@@H](C)C[C@H](Cc1ccccc1)NC(=O)c1nc([C@@H](C[C@H](C(C)C)N(C)C(=O)[C@@H](NC(=O)[C@H]2CCCCN2C)C(C)C)OC(C)=O)sc1C(C)C : TRUE
O=C(Nc1ccc(-n2ccc3c(NC(=O)c4ccccc4)ncnc32)cc1)c1ccc(Cl)c(C(F)(F)F)c1 : FALSE

# ---- query molecule ----
What call does the record list for CNCCC/C=C1\c2cc3c(cc2-c2c1c1cc(OC)c(OC)cc1c(=O)n2C)OCO3 ?
FALSE
